condition-set: 318.15 K; 101.33 kPa; Liquid; Vibrating tube method
metric-name: mass density (kg/m3)
Lab book: enter the figure in kg/m3, no units written.

Recorded results for 3 compounds are shown here.
{"compound": "CCCC[N+]1(C)CCCC1.FC(F)(F)C(F)(F)[P-](F)(F)(F)(C(F)(F)C(F)(F)F)C(F)(F)C(F)(F)F", "metric-name": "mass density", "measurement": 1561.06}
{"compound": "CCCCN(C=O)CCCC [N,N-dibutylformamide]", "metric-name": "mass density", "measurement": 859.01}
{"compound": "CN(C)C=O [dimethylformamide]", "metric-name": "mass density", "measurement": 924.06}

Input: Which mass density value belongs to CC(=O)N(C)C [N,N-dimethylethanamide] ?
Output: 917.23

Input: What value of mass density has been recorded for this entry: CCNC=O [N-ethylformamide]
Output: 930.45

Input: Could you share which mass density value was measured for CNC=O [N-methylformamide] ?
Output: 980.88

====

condition-set: 293.15 K; 101.33 kPa; Liquid; Vibrating tube method
metric-name: mass density (kg/m3)
The figure you give is taken to be in kg/m3; do not add the unit.

Input: Need mass density, item CC(=O)N(C)C [N,N-dimethylethanamide]
Output: 940.92

Input: Fill in the blank: the reported mass density of CCNC=O [N-ethylformamide] is ____.
Output: 951.59

Input: Quick one: mass density of CN(C)C=O [dimethylformamide] ?
Output: 948.72

Input: Recorded mass density of CNC=O [N-methylformamide] , please.
Output: 1003.35

Input: Bench note: what mass density did `CCCC[N+]1(C)CCCC1.FC(F)(F)C(F)(F)[P-](F)(F)(F)(C(F)(F)C(F)(F)F)C(F)(F)C(F)(F)F` show?
Output: 1588.56

Input: Consider the molecule shown here: CCCCN(C=O)CCCC [N,N-dibutylformamide] What is its recorded mass density?
Output: 879.05

====

condition-set: 323.15 K; 101.33 kPa; Liquid; Vibrating tube method
Each entry gets criterion not met if its mass density stays under 900 kg/m3, and criterion met if its mass density is 900 kg/m3 or above.

Examples with answers:
{"compound": "CCCC[N+]1(C)CCCC1.FC(F)(F)C(F)(F)[P-](F)(F)(F)(C(F)(F)C(F)(F)F)C(F)(F)C(F)(F)F", "label-value": "criterion met"}
{"compound": "CCCCN(C=O)CCCC [N,N-dibutylformamide]", "label-value": "criterion not met"}

Input: Please indicate if the recorded mass density for CNC=O [N-methylformamide] meets or exceeds 900 kg/m3.
Output: criterion met

====

condition-set: 303.15 K; 101.33 kPa; Liquid; Vibrating tube method
± gives the expanded uncertainty stated by the source.
metric-name: mass density
Returns: string containing the number followed by the unit.

Answered cases to consult:
{"molecule": "CCNC=O [N-ethylformamide]", "mass density": "943.29 ± 0.07 kg/m3"}
{"molecule": "CN(C)C=O [dimethylformamide]", "mass density": "939 ± 0.23 kg/m3"}
{"molecule": "CNC=O [N-methylformamide]", "mass density": "994.49 ± 0.23 kg/m3"}
{"molecule": "CCCC[N+]1(C)CCCC1.FC(F)(F)C(F)(F)[P-](F)(F)(F)(C(F)(F)C(F)(F)F)C(F)(F)C(F)(F)F", "mass density": "1577.67 ± 0.75 kg/m3"}
{"molecule": "CCCCN(C=O)CCCC [N,N-dibutylformamide]", "mass density": "871.17 ± 0.23 kg/m3"}

Attention now shifts to the item below.
Input: // returns reported mass density for input CC(=O)N(C)C [N,N-dimethylethanamide]
Output: 931.62 ± 0.23 kg/m3
